B1: Syntaxin-binding protein 4, residues 493 to 538; numbered along this chain, Q6ZWJ1 (parent)
chain: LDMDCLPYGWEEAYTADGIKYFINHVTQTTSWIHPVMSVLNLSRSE

variants of: B1; assay: abundance fitness (aPCA) (normalised: wild type 0, dead -1); higher = more abundant; growth selection in yeast, the domain comes from the species named; settings: Homo sapiens
Entries get a class label from measured abundance fitness. See ranges: class A = under -0.5, class B = from -0.5 up to 0.08, class C = 0.08 and over

>>> class_name("C5K")
"class B"
>>> class_name("S31I")
"class A"
>>> class_name("V26H")
"class C"
>>> class_name("D2A")
"class B"
>>> class_name("Y21I")
"class A"
>>> class_name("L6E")
"class A"
>>> class_name("K20R")
"class B"
>>> class_name("I33T")
"class B"
>>> class_name("P35N")
"class A"
>>> class_name("H25K")
"class C"
>>> class_name("I19Q")
"class C"
